- TARGET OR TEST SYSTEM: 14-3-3ζ:BAD-112-136F interactions (Homo sapiens, UniProt P63104)
- Construct: expressed in transfected cells; host or cells: NIH-3T3 fibroblasts, bi-directional pBI-CMV1 plasmid
- Sequence (P63104 1-245): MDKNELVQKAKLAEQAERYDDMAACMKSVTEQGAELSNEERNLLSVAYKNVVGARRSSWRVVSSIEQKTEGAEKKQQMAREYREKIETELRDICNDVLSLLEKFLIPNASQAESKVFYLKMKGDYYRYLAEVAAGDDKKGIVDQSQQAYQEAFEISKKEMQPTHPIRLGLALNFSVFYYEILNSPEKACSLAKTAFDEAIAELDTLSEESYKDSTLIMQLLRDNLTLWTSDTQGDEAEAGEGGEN
- ASSAY REMARKS: BRET sensor screen for disruption of 14-3-3ζ-Rluc8:BAD-112-136F-mCitrine in living NIH-3T3 cells
- Format: cell-based, murine
- Set-up: dose or concentration left out as unconfirmed
- RUN PARAMETERS: NIH3T3, 3 h, NIH-3T3 cells; hits from the primary screen; read-out: BRET reduction on NIH-3T3
MEASURED METRIC: inhibition (%)

C=C[C@@H]1C[C@]1(NC(=O)[C@@H]1C[C@@H](Oc2ncc(OC)c3ccc(Cl)cc23)CN1C(=O)[C@@H](NC(=O)OC(C)(C)C)C(C)(C)C)C(=O)NS(=O)(=O)C1CC1 [Asunaprevir (BMS-650032), Asunaprevir]: 41.4
CN(C)c1ccc(C(=C2C=CC(=[N+](C)C)C=C2)c2ccc(N(C)C)cc2)cc1 [Crystal Violet]: 75.6
CCCCCCCCCCCC1=C(O)C(=O)C=C(O)C1=O [Embelin]: 37
Clc1ccc(CCC(Cn2ccnc2)Sc2c(Cl)cccc2Cl)cc1 (centres unmarked) [Butoconazole nitrate]: 45.1
C[C@@H](NCCCc1cccc(C(F)(F)F)c1)c1cccc2ccccc12 [Cinacalcet]: 47.7

a = CC(C)=CCC/C(C)=C/CC/C(C)=C/CSc1ccccc1C(=O)O [Salirasib]
b = O=C1Nc2ccc(Cl)cc2[C@@](C#CC2CC2)(C(F)(F)F)O1 [Efavirenz]
*Q* Look at a and b . Which one has the lower recorded inhibition number? Answer with the label corresponding to your selection.
*A* b
